# assay-info: yeast display, Sf9 membrane polyspecificity reagent, FACS + sequencing; frameworks hold sequencing errors
readout-label: polyreactivity (PSR sort gate)

construct-sequence | polyreactivity (PSR sort gate)
QVQLVESVGGLDQAGGSLRLSCAASALIFPRYDMGSYRQAPGKERELDAAITSGGGTYNADSVKGRFTISRDNAKITVYLQMNSLKPEDTAVYYCAAGPVFGGGGYDYWGQGTQVTVSS | low polyreactivity
QVQLEESGGGLVQAGGSLRLSCAASGSIFDPNAMGWYRKAPGKERELVADIDSSDGSTYYADSVKGRFTISRDNAKNTVYLQMNSLKPEDTAVYYCNARYGGWVWSTYDHWGQGTQVTVSS | low polyreactivity
QVQLVVSGGGLVQAGGSLRLSCAASGRIFLWNAMGWYRQAPGKERDLVAAISSGGGTNYADSVKGRFTISRDNAKNSVYLQMNSLKPEDTAVYYCAARRTYRFGWGQGTQVTVSS | high polyreactivity
QVQLVESGGGLVQAGGSLRLSCAASGSIFYDNAMGWYRQAPGKEREFVAAISTSGGSTYYADSVKGRFTISRDTAKNTVYLQMNSLKPEDTAVYYCAAEWPDLGYWWWYDVGYGYWGQGTQVTVSS | high polyreactivity
QVQLVESGGGLVQAGGSLRLSCAASGSTFYEYAMGWYRQAPGKERELVAAISSGGSTYYADSVTGRFTISRDNAKNTVYLLMNSLKPEDTAVYYCNADCQTYCGEYDYWGQGTQVTVSS | low polyreactivity

For every record below, what is its polyreactivity (PSR sort gate)?
1. QVQLVESGGGLVQAGGSLGLSCAASGFIFSSNAMGWYRQARGKERELVAAITSGGGRTYSADSVKRRFTISRDNAKNTVYLQKNSLKPEDTAVYYCNAEQWQSSEYGEWSKRDYWGQGTQVTVSS
2. QVQLVESGGGLVQAGGSLRLICAASGSILTHYAMGWYRQAPGKERELVAAITWRGGSTYYADSVKGRFTISRDNAKNTVYLQMNSLKPEDTAVYYCNADYFGGGDYWGQGTQVTVSS
3. QVQLVESGGGLVQAGGSLRLSCAASGFTFRYNAMGWYRQAPGKKGSWVAAISRTGGSTYYADSVKGRFTISRDNAKNTVYLQMNSLKPEDTAVYYCARAPEGTGGKYGYWGQGTQVTVSS
4. QVQLVESGGGLVQAGGSLRLSCAASGFIYGSNAMGWYRQAPGKERELVAAISRSGGSTYYADSVKGRFTISRDNAKNTVYLQMNSLKPEDTAVYYCNVDLWTFVYSWWSYDYWGQGTQVTVSS
5. QVQLVESGGGLVQAGGSLRLSCAASGFIFGTYAMGWYRQAPGKERELVAAISVGGGSTYYADSVKGRFTISRDNAKNTVYLQMNSLKPEDTAVYYCAAVQLYQKHQITYVAHEYWGQGTQVTVSS

1. low polyreactivity
2. low polyreactivity
3. high polyreactivity
4. high polyreactivity
5. low polyreactivity

Answer for every listed entry: what is its polyreactivity (PSR sort gate)? The entries follow.
1. QVQLVESGGGLVQAGGSLRLSCAASGSTFDVYAMGWYRQAPGKERELVAVINTSGTRTYYADSVKGRFTISRDNAKNTVYLQMNSLKPEDTAVYYCNAGGHLEMNYWGLGTQVTVSS
2. QVQLEESGGGLVQAGGSLRLSCAASGSTFSTYSMAWYRHAPGKERELVARITRSDTGTYYADSVKGRFTISRDYAKNTVYLQLNSLKPEDTAVYDCAADGWYDDSGWDYGYDYWGQGTQVTVSS
3. QVHLVESGGGLVQAGGSLRLSCAASGRIYPYPMGWYRQAPGKERELVAAITSRGGTTYYADSVKGRFTISRDNAKNTDYVQMNSLKPEDTAVYYCNKRPWWWGGDDYWGQGTQVTVSS
4. QVQLVESGGGLVQAGGSLRLSCAASGFTFDSYAMGRYRQAPGKERELVAAISSSGGDSTSYADSVKGRFTISRDNAKNTVYLQMNRLKPEDTAVYYCADEQFYSFIVDDTWFSGFDYWGQGTQVTVSS
5. QVQLEESGGGLVQAGGSLRLSCAASGRTFWDNARGWNRQAPGKERELVATITSGDSTNYAASVKGRFTISRDNAKNTVYLQMNSLKPEDTAVYYCARVIVFDAYEFDYWGQGTQVTVSS
6. QVQLVESGGGLVQAGGSLRLSCAASGSIFGYYALGWSRPAPGKERELVASITSGDSTNYADSVKGRFTISRDNAKKTVYLQMNSQKPEDTAVYYCTTERGDYDEYDYWGQGTQVTVSS
7. QEQLQESGGGLVQAGGSLCLSCAASGTIFFDGDMGWYRQAPGKEREFVAAINPGGSAYYADSVKGRLPLAAITHTVYLQMNSLKPEDTAVYYCAAKLFDVYGYYYWGQGTHVTVSS
8. QVQLVESGGGLVKAAGSLRLSSAASGSIFSYNAMGWNRQAPGKERELVAAITFTAGNTYYADSVKGRFTISRDNAKNTVYLQMNILKPEDTAVYYCAATIQSYREDDNWGQGTQVTVSS

1: low polyreactivity; 2: low polyreactivity; 3: low polyreactivity; 4: low polyreactivity; 5: low polyreactivity; 6: low polyreactivity; 7: low polyreactivity; 8: low polyreactivity

Hello, the source for this data is the nanobody polyreactivity screen of Harvey et al. (2022), in case you need it.
